# experimental-details: Permeability of the compound at donor pH 7.4 and acceptor pH 7.4 after 3 hrs incubation by PAMPA analysis
# Format: ADME
# experimental-conditions: read-out: permeability
Square brackets hold non-standard residues; d marks the D form. Peptide text beside a SMILES is read from it. 2Pal = N[C@@H](Cc1ccccn1)C(=O)O; 4Pal = N[C@@H](Cc1ccncc1)C(=O)O
quantity-measured: Papp at 3 h (×10⁻⁶ cm/s)

INSERT INTO measurements (compound, comparator, numeric_value) VALUES
  ('CC(C)C[C@@H]1NC(=O)[C@@H](CC(C)C)NC(=O)[C@H](Cc2ccc(O)cc2)NC(=O)[C@@H]2CCCN2C(=O)[C@H](CC(C)C)NC(=O)[C@](C)(CC(C)C)NC(=O)[C@@H](CC(C)C)NC1=O', '=', 18.5),
  ('CC(C)C[C@@H]1NC(=O)[C@@H](CC(C)C)NC(=O)[C@H](CC(C)C)NC(=O)[C@@H](CC(C)C)NC(=O)[C@H](Cc2ccc(O)cc2)NC(=O)[C@@H]2CCCN2C(=O)[C@H](CC(C)C)NC1=O', '=', 13),
  ('CC(C)C[C@@H]1NC(=O)[C@@H](CC(C)C)NC(=O)[C@@H]([C@H](C)O)NC(=O)[C@H](Cc2ccc(O)cc2)NC(=O)[C@@H]2CCCN2C(=O)[C@H](CC(C)C)NC1=O', '=', 1.05),
  ('CC(C)C[C@@H]1NC(=O)[C@H](Cc2ccc(O)cc2)NC(=O)[C@@H]2CCCN2C(=O)[C@H](CC(C)C)NC(=O)[C@H](CC(C)C)NC(=O)[C@H](Cc2ccncc2)NC1=O (cyclo([4Pal]LLPYL))', '<', 0.65),
  ('CC(C)C[C@@H]1NC(=O)[C@H](Cc2ccc(O)cc2)NC(=O)[C@@H]2CCCN2C(=O)[C@H](CC(C)C)NC(=O)[C@H](CC(C)C)N(C)C(=O)[C@@H](CC(C)C)N(C)C1=O', '=', 34.7),
  ('CC(C)C[C@@H]1NC(=O)[C@@H](CC(C)C)N(C)C(=O)[C@H](CC(C)C)NC(=O)[C@H](Cc2ccc(O)cc2)NC(=O)[C@@H]2CCCN2C(=O)[C@H](CC(C)C)NC1=O', '=', 14.4),
  ('CC(C)C[C@@H]1NC(=O)[C@@H](CC(C)C)NC(=O)[C@H]([C@@H](C)O)NC(=O)[C@H](Cc2ccc(O)cc2)NC(=O)[C@@H]2CCCN2C(=O)[C@H](CC(C)C)NC1=O', '<', 0.65),
  ('CC(C)C[C@@H]1NC(=O)[C@@H](CC(C)C)NC(=O)[C@](C)(CC(C)C)NC(=O)[C@H](Cc2ccc(O)cc2)NC(=O)[C@@H]2CCCN2C(=O)[C@H](CC(C)C)NC1=O', '=', 17),
  ('CC(C)C[C@@H]1NC(=O)[C@H](Cc2ccc(O)cc2)NC(=O)[C@@H]2CCCN2C(=O)[C@H](CC(C)C)NC(=O)[C@H](CC(C)C)NC(=O)[C@H](Cc2ccccn2)NC1=O (cyclo([2Pal]LLPYL))', '=', 1.35),
  ('CC(C)C[C@@H]1NC(=O)[C@@H](CC(C)C)NC(=O)[C@H](CC(C)C)NC(=O)[C@@](C)(CC(C)C)NC(=O)[C@H](Cc2ccc(O)cc2)NC(=O)[C@@H]2CCCN2C(=O)[C@H](CC(C)C)NC1=O', '=', 30.3);
